# subject_of_test: human Y2-R (Homo sapiens)
# Sequence (P49146 1-381): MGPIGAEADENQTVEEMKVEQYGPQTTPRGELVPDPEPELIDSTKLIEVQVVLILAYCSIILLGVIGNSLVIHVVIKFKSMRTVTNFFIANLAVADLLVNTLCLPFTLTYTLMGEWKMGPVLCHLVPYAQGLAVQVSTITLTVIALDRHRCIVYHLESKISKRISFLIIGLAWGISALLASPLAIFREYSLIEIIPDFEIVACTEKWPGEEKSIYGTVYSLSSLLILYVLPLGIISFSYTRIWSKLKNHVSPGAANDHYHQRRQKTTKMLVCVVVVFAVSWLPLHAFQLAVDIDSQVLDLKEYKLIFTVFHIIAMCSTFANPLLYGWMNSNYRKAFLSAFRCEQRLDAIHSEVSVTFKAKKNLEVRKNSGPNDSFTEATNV
# assay_remarks: Y2-R agonism: counteraction of adenosine-stimulated cAMP (FRET) in HEK293 C24 cells transfected with Y2-R
# Format: cell-based
# applied_conditions: HEK293 C24 cells transiently transfected with Y2-R, 20 min pre-treatment; also reported previously [16]; read-out: IC50, inhibition of adenosine-stimulated cAMP production at Y2-R
Square brackets hold non-standard residues; d marks the D form. Ends that are not written are not given here.
measured_property: pIC50
Quick note: pIC50 values are minus log10 of concentrations in mol/L.

Enquiry: Which pIC50 value belongs to H[dS]QGTFTSDLSKYLEEEAVREFIAWLKNGGPSRHYLNLVTRQRY-NH2 [GEP44] ?
Return: 7.47

---

# subject_of_test: human GLP-1R (Homo sapiens)
# assay_remarks: SPR binding to His-tagged GLP-1R on NTA sensor
# applied_conditions: in-house SPR, 0.1–100 nM, duplicate
Square brackets hold non-standard residues; d marks the D form. Ends that are not written are not given here.
measured_property: pIC50
On this scale, pIC50 is minus log10 of a concentration expressed in M (mol/L).

Enquiry: Consider the substance F[dS]QGTFTSDLSKYLEEEAVREFIAWLKNGGPSRHYLNLVTRQRY-NH2 [GEP12] and give its measured pIC50.
Return: 7.72

---

# subject_of_test: human Y1-R (Homo sapiens)
# Construct: His tag; purchased antibodies-online Inc. ABIN7086253
# Sequence (P25929 whole entry): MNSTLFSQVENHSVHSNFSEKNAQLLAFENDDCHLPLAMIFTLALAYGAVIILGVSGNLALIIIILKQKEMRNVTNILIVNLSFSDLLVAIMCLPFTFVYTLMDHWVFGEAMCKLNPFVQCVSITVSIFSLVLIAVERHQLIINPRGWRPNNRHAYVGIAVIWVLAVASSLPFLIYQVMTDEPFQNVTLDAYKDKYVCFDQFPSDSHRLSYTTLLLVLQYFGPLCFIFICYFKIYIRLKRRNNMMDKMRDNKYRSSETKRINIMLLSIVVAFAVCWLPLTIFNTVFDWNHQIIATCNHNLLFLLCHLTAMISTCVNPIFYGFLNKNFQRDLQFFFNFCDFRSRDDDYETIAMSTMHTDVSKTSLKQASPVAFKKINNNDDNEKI
# assay_remarks: SPR binding at Y1-R
# applied_conditions: in-house SPR, 4 pM–19 µM; read-out: half-maximal binding at Y1-R
Square brackets hold non-standard residues; d marks the D form. Ends that are not written are not given here.
measured_property: IC50 (nM)
All answers are understood in nM, so give the number only.

Enquiry: For the record H[dS]QGTFTSDLSKYLEEEAVREFIAWLKNGGPSRHYLNLVTRQRY-NH2 [GEP44] , what value of IC50 is listed for human Y1-R (Homo sapiens)?
Return: 86.6

---

# subject_of_test: human GLP-1R (Homo sapiens, UniProt P43220)
# Sequence (P43220 24-463): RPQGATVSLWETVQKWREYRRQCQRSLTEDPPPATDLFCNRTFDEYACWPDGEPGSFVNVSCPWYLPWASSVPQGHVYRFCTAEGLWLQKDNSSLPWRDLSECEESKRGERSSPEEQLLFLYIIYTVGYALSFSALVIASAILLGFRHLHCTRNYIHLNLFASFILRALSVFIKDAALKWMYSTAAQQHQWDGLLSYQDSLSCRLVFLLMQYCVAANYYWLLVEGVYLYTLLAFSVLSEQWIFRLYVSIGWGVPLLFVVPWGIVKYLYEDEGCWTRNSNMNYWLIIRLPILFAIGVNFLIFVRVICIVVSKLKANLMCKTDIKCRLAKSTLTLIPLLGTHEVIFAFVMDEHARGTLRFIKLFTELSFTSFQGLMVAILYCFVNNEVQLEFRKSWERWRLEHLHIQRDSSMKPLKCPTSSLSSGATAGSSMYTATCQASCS
# assay_remarks: β-arrestin-2 recruitment at GLP-1R
# Format: cell-based
# applied_conditions: dose–response 5.51 pM–551 nM, duplicate
Square brackets hold non-standard residues; d marks the D form. Ends that are not written are not given here.
measured_property: EC50 (nM)
Reply with just the number (in nM).

Enquiry: Name the recorded EC50 for H[dS]QGTFTSDLSKYLEEEAVREFIAWLKNGGPSRHYLNLVTRQRY-NH2 [GEP44] .
Return: 1.59
